# test.target: COX-1 (Ovis aries)
# Construct: purchased Cayman Chemical Co
# Sequence (P05979 25-600): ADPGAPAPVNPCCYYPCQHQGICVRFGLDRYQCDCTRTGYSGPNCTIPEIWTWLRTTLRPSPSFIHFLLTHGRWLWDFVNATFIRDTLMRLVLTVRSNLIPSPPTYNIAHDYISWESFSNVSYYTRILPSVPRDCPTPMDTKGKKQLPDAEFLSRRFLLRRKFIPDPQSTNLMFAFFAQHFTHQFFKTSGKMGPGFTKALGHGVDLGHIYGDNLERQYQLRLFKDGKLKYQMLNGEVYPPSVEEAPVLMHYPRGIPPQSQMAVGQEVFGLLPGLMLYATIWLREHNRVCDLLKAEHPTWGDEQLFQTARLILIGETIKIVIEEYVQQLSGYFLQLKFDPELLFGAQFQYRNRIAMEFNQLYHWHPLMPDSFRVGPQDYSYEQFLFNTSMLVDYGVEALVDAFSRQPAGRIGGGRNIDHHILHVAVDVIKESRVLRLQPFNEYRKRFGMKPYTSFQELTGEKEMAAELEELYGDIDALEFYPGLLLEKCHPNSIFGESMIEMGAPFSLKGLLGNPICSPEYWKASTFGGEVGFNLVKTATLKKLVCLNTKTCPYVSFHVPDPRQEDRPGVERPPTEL
# assay.remarks: Inhibitory Activity on COX-1 (Assay Example 5)
# Type: biochemical
# study.conditions: Table 4; read-out: COX Inhibiting Activity IC50, COX-1
pIC50: −log10 of the molar value.
compounds and their reported pIC50

Worked cases, pIC50 given:
>>> obs_value("Cc1ccc2nc(-c3cc(C(F)(F)F)nn3-c3ccc(S(N)(=O)=O)cc3)sc2c1 [Example 16]")
"< 4.00"
>>> obs_value("CS(=O)(=O)c1ccc(-n2nc(C(F)F)cc2-c2nc3ccc(F)cc3s2)cc1 [Example 22]")
"< 4.00"
>>> obs_value("Cc1ccc2nc(-c3cc(C(F)(F)C(F)(F)F)nn3-c3ccc(S(C)(=O)=O)cc3)sc2c1 [Example 32]")
"< 4.00"
>>> obs_value("Cc1cccc2nc(-c3cc(C(F)F)nn3-c3ccc(S(N)(=O)=O)cc3)sc12 [Example 31]")
"< 4.00"

Qu. Requested field: pIC50. Item: NS(=O)(=O)c1ccc(-n2nc(C(F)(F)F)cc2-c2nc3cccc(F)c3s2)cc1 [Example 18]
Ans. < 4.00

Qu. Now try NS(=O)(=O)c1ccc(-n2nc(C(F)F)cc2-c2nc3ccc(Cl)cc3s2)cc1 [Example 24] .
Ans. 5.74

Qu. Try COc1ccc2nc(-c3cc(C(F)F)nn3-c3ccc(S(N)(=O)=O)cc3)sc2c1 [Example 25] next.
Ans. < 4.00

Qu. Another compound to look at: CS(=O)(=O)c1ccc(-n2nc(C(F)(F)F)cc2-c2nc3cccc(F)c3s2)cc1 [Example 17]
Ans. < 4.00

Qu. Check NS(=O)(=O)c1ccc(-n2nc(C(F)F)cc2-c2nc3cccc(F)c3s2)cc1 [Example 29] too.
Ans. < 4.00
